- assaySystem: TNFα / TNFα receptor (TNFα R1/Fc) (Homo sapiens)
- Construct: purchased R&D Systems
- assayExplanation: Inhibition of binding of TNFα to the TNFα receptor (plate ELISA competition)
- assayContext: Table 2; read-out: Activity (IC50, inhibition of TNFα binding to TNFα R1/Fc)
Numbered stars: 1 amine (or outer) side, 2 acyl side, 3 side chain; on linkers, the order of the positions; unused ones are H or OH. Bridge positions count the residues as written; N and C are the ends. Square brackets hold non-standard residues; d marks the D form. Peptide text beside a SMILES is read from it. * marks the point of attachment. Phe(4-COOH) = N[C@@H](Cc1ccc(C(=O)O)cc1)C(=O)O; Bip = N[C@@H](Cc1ccc(-c2ccccc2)cc1)C(=O)O; dBip = N[C@H](Cc1ccc(-c2ccccc2)cc1)C(=O)O; Phe(4-NH2) = Nc1ccc(C[C@H](N)C(=O)O)cc1; d(hPhe) = N[C@H](CCc1ccccc1)C(=O)O; d2Thi = N[C@H](Cc1cccs1)C(=O)O; Suc = O=C(CCC(=O)[*:2])[*:1]; NHCH2CH2OH = OCCN*; βAla = NCCC(=O)O
Measured IC50 by item

INSERT INTO results (compound, testreadout, experimentalresult) VALUES
  ('O=C(O)[C@H](Cc1ccccc1)NC(=O)[C@@H]1Cc2ccc(cc2)NC(=O)[C@H](O)[C@@H](O)C(=O)N[C@@H](Cc2cccs2)C(=O)N[C@H](Cc2ccc(-c3ccccc3)cc2)C(=O)N[C@@H](CCc2ccccc2)C(=O)N1 [Compound 433]', 'IC50', '> 100 µM');

Entry O=C1CCC(=O)N[C@H](Cc2cccs2)C(=O)N[C@@H](Cc2ccc(-c3ccccc3)cc2)C(=O)N[C@H](Cc2ccccc2)C(=O)N[C@H](C(=O)NCCO)Cc2ccc(cc2)N1 [Compound 205] ([d2Thi][Bip][dF][Phe(4-NH2)]-NHCH2CH2OH; linker N-4 via Suc) under TNFα / TNFα receptor (TNFα R1/Fc) (Homo sapiens) had IC50 of > 100 µM

Hey, TNFα / TNFα receptor (TNFα R1/Fc) (Homo sapiens) data for O=C1COc2ccc(cc2)C[C@@H](C(=O)O)NC(=O)[C@H](CCc2ccccc2)NC(=O)[C@@H](Cc2ccc(-c3ccccc3)cc2)NC(=O)[C@H](Cc2ccc(OCc3ccccc3)cc2)N1 [Compound 685] : IC50 came out at < 10 µM

Fill in: TNFα / TNFα receptor (TNFα R1/Fc) (Homo sapiens) IC50 for O=C1CCNC(=O)c2ccc(cc2)C[C@@H](C(=O)O)NC(=O)[C@@H](Cc2ccccc2)NC(=O)[C@H](Cc2ccc(-c3ccccc3)cc2)NC(=O)[C@@H](CCc2ccccc2)N1 [Compound 248] ([βAla][d(hPhe)][Bip][dF][Phe(4-COOH)]-OH; lactam N-5) = < 10 µM

# lookup: O=C(O)[C@H](Cc1ccccc1)NC(=O)[C@H]1Cc2ccc(cc2)NC(=O)[C@H](O)[C@@H](O)C(=O)N[C@@H](Cc2cccs2)C(=O)N[C@H](Cc2ccc(Br)cc2)C(=O)N[C@@H](CCc2ccccc2)C(=O)N1 [Compound 436] on TNFα / TNFα receptor (TNFα R1/Fc) (Homo sapiens), IC50 = < 10 µM

Observed IC50, TNFα / TNFα receptor (TNFα R1/Fc) (Homo sapiens), Cc1ccc(S(=O)(=O)NCCNC(=O)[C@@H]2Cc3ccc(cc3)OCC(=O)N[C@@H](Cc3cccs3)C(=O)N[C@H](Cc3ccc(-c4ccccc4)cc3)C(=O)N[C@@H](CCc3ccccc3)C(=O)N2)cc1 [Compound 484] : > 100 µM

Observed IC50 on TNFα / TNFα receptor (TNFα R1/Fc) (Homo sapiens), entry O=C1CCNC(=O)c2ccc(cc2)C[C@@H](C(=O)O)NC(=O)[C@H](Cc2ccccc2)NC(=O)[C@@H](Cc2ccc(-c3ccccc3)cc2)NC(=O)[C@@H](CCc2ccccc2)N1 [Compound 466] ([βAla][d(hPhe)][dBip]F[Phe(4-COOH)]-OH; lactam N-5) , equals > 100 µM

Recorded IC50 for O=C(OCc1ccccc1)c1ccc(-c2ccc(C[C@@H]3NC(=O)[C@@H](Cc4cccs4)NC(=O)[C@H](O)[C@@H](O)C(=O)Nc4ccc(cc4)C[C@@H](C(=O)O)NC(=O)[C@@H](Cc4ccccc4)NC3=O)cc2)cc1 [Compound 335] on TNFα / TNFα receptor (TNFα R1/Fc) (Homo sapiens) was 10 to 30 µM

###

Reported IC50 values follow for various molecules
- assaySystem: TNFα / TNFα receptor (TNFα R1/Fc) (Homo sapiens, UniProt P01375)
- Construct: purchased R&D Systems
- Sequence (P01375 77-233 limits assumed, species assumed): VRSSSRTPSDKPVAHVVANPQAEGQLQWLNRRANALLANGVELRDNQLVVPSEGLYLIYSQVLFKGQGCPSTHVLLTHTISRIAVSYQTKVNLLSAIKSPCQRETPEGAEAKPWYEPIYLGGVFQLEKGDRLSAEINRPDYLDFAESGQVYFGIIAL
- assayExplanation: Inhibition of binding of TNFα to the TNFα receptor (plate ELISA competition)
- assayContext: Table 2; read-out: Activity (IC50, inhibition of TNFα binding to TNFα R1/Fc)

INSERT INTO measurements (smilestext, experimentalresult) VALUES
  ('O=C1COc2ccc(cc2)C[C@@H](C(=O)O)NC(=O)[C@H](Cc2ccc(-c3cccnc3)cc2)NC(=O)[C@@H](Cc2ccc(-c3ccccc3)cc2)NC(=O)[C@H](Cc2ccncc2)N1', '< 10 µM'),
  ('O=C1COc2ccc(cc2)C[C@@H](C(=O)N2CCC(C(=O)O)CC2)NC(=O)[C@@H](CCc2ccccc2)NC(=O)[C@H](Cc2ccc(-c3ccccc3)cc2)NC(=O)[C@@H](Cc2cccs2)N1', '< 10 µM'),
  ('O=C1COc2ccc(cc2)C[C@@H](C(=O)O)NC(=O)[C@H](CCc2ccccc2)NC(=O)[C@@H](Cc2ccc(-c3ccccc3)cc2)NC(=O)[C@H](Cc2cn(-c3ccccc3)nn2)N1', '< 10 µM'),
  ('O=C1COc2ccc(cc2)C[C@@H](C(=O)O)NC(=O)[C@H](Cc2cccc(F)c2)NC(=O)[C@@H](Cc2ccc(-c3ccccc3)cc2)NC(=O)[C@H](Cc2cccs2)N1', '> 100 µM');

Turning now to a further record.
# IC50 of O=C1COc2ccc(cc2)C[C@@H](C(=O)O)NC(=O)[C@H](Cc2ccccc2)NC(=O)[C@H](Cc2ccc(Br)cc2)NC(=O)[C@H](Cc2cccs2)N1 = > 100 µM

###

- assaySystem: TNFα / TNFα receptor (TNFα R1/Fc) (Homo sapiens, UniProt P01375)
- Construct: purchased R&D Systems
- assayExplanation: Inhibition of binding of TNFα to the TNFα receptor (plate ELISA competition)
- assayContext: Table 2; read-out: Activity (IC50, inhibition of TNFα binding to TNFα R1/Fc)
Numbered stars: 1 amine (or outer) side, 2 acyl side, 3 side chain; on linkers, the order of the positions; unused ones are H or OH. Bridge positions count the residues as written; N and C are the ends. Square brackets hold non-standard residues; d marks the D form. Peptide text beside a SMILES is read from it. Bip = N[C@@H](Cc1ccc(-c2ccccc2)cc1)C(=O)O; dPhe(4-NH2) = Nc1ccc(C[C@@H](N)C(=O)O)cc1; 2Thi = N[C@@H](Cc1cccs1)C(=O)O; Suc = O=C(CCC(=O)[*:2])[*:1]
testReadout: IC50

INSERT INTO results (molecule, assaysystem, experimentalresult) VALUES
  ('O=C1CCC(=O)N[C@@H](Cc2cccs2)C(=O)N[C@@H](Cc2ccc(-c3ccccc3)cc2)C(=O)N[C@H](Cc2ccccc2)C(=O)N[C@@H](C(=O)O)Cc2ccc(cc2)N1 [Compound 499] ([2Thi][Bip][dF][dPhe(4-NH2)]-OH; linker N-4 via Suc)', 'TNFα / TNFα receptor (TNFα R1/Fc) (Homo sapiens, UniProt P01375)', '> 100 µM');

IC50 in this record for O=C1COc2ccc(cc2)C[C@@H](C(=O)O)NC(=O)[C@@H](Cc2ccccc2)NC(=O)[C@H](Cc2ccc(C(F)(F)F)cc2)NC(=O)[C@@H](CCc2ccccc2)N1 : > 100 µM

###

- assaySystem: TNFα / TNFα receptor (TNFα R1/Fc) (Homo sapiens, UniProt P01375)
- Construct: purchased R&D Systems
- assayExplanation: Inhibition of binding of TNFα to the TNFα receptor (plate ELISA competition)
- assayContext: Table 2; read-out: Activity (IC50, inhibition of TNFα binding to TNFα R1/Fc)
Numbered stars: 1 amine (or outer) side, 2 acyl side, 3 side chain; on linkers, the order of the positions; unused ones are H or OH. Bridge positions count the residues as written; N and C are the ends. Square brackets hold non-standard residues; d marks the D form. Peptide text beside a SMILES is read from it. * marks the point of attachment. Tartaroyl(2R,3R-(OAc)2) = CC(=O)O[C@@H](C(=O)[*:1])[C@@H](OC(C)=O)C(=O)[*:2]; Phe(2,4-Cl2) = N[C@@H](Cc1ccc(Cl)cc1Cl)C(=O)O; Bip = N[C@@H](Cc1ccc(-c2ccccc2)cc1)C(=O)O; dPhe(4-NH2) = Nc1ccc(C[C@@H](N)C(=O)O)cc1; Phe(4-NH2) = Nc1ccc(C[C@H](N)C(=O)O)cc1; d(hPhe) = N[C@H](CCc1ccccc1)C(=O)O; d2Thi = N[C@H](Cc1cccs1)C(=O)O; Suc = O=C(CCC(=O)[*:2])[*:1]; OtBu = CC(C)(C)O*
Form field: IC50 (one value per entry).

The following compounds have reported results that may help.
INSERT INTO assay_data (compound, experimentalresult) VALUES
  ('CC(=O)O[C@H]1C(=O)Nc2ccc(cc2)C[C@H](C(=O)O)NC(=O)[C@@H](CCc2ccccc2)NC(=O)[C@H](Cc2ccc(Cl)cc2Cl)NC(=O)[C@@H](Cc2cccs2)NC(=O)[C@@H]1OC(C)=O [Compound 221] ([d2Thi][Phe(2,4-Cl2)][d(hPhe)][dPhe(4-NH2)]-OH; linker N-4 via Tartaroyl(2R,3R-(OAc)2))', '30 to 100 µM'),
  ('CC(C)(C)OC(=O)C[C@@H]1NC(=O)[C@H](Cc2ccc(-c3ccccc3)cc2)NC(=O)[C@@H](Cc2cccs2)NC(=O)CCC(=O)Nc2ccc(cc2)C[C@@H](C(=O)O)NC1=O [Compound 62] ([d2Thi][Bip]D(OtBu)[Phe(4-NH2)]-OH; linker N-4 via Suc)', '> 100 µM'),
  ('O=C1CCC(=O)N[C@H](Cc2cccs2)C(=O)N[C@@H](Cc2ccc(O)cc2)C(=O)N[C@H](Cc2ccccc2)C(=O)N[C@H](C(=O)O)Cc2ccc(cc2)N1 [Compound 87] ([d2Thi]Y[dF][Phe(4-NH2)]-OH; linker N-4 via Suc)', '> 100 µM'),
  ('C[C@@H](NC(=O)[C@@H]1Cc2ccc(cc2)OCC(=O)N[C@@H](Cc2ccncc2)C(=O)N[C@H](Cc2ccc(-c3ccccc3)cc2)C(=O)N[C@@H](CCc2ccccc2)C(=O)N1)C(=O)O [Compound 557]', '< 10 µM'),
  ('O=C1COc2ccc(cc2)C[C@@H](C(=O)O)NC(=O)[C@H](CCc2ccccc2)NC(=O)[C@@H](Cc2ccc(-c3ccncc3)cc2)NC(=O)[C@H](Cc2ccccn2)N1 [Compound 661]', '30 to 100 µM'),
  ('O=C1COc2ccc(cc2)C[C@H](C(=O)N[C@H](CCc2ccccc2)C(=O)O)NC(=O)[C@H](Cc2ccccc2F)NC(=O)[C@@H](Cc2ccc(-c3ccccc3)cc2)NC(=O)[C@H](Cc2ccncc2)N1 [Compound 736]', '< 10 µM');

Sample O=C1COc2ccc(cc2)C[C@@H](C(=O)O)NC(=O)[C@H](c2ccccc2)NC(=O)[C@@H](Cc2ccc(-c3ccccc3)cc2)NC(=O)[C@H](Cc2cccs2)N1 [Compound 368] , system: TNFα / TNFα receptor (TNFα R1/Fc) (Homo sapiens, UniProt P01375). Its IC50 is > 100 µM

Tested on TNFα / TNFα receptor (TNFα R1/Fc) (Homo sapiens, UniProt P01375): O=C1N[C@@H](C(=O)O)Cc2ccc(cc2)NC(=O)[C@H](O)[C@@H](O)C(=O)N[C@@H](Cc2cccs2)C(=O)N[C@H](Cc2ccc(-c3ccccc3)cc2)C(=O)N[C@H]1Cc1ccccc1 [Compound 278] . Observed IC50: > 100 µM
